Molecular target: ERα (Homo sapiens, UniProt P03372)
Construct: host or cells: MCF7 cells
Test: Estrogen receptor degradation activity: breast cancer cell ERα in cell western assay (MCF7 cells)
Type: cell-based
Conditions: 4 hours, final concentrations ranging from 3-0.000018 μM, relative to fulvestrant 0.1 μM positive control
Protocol: Test: Estrogen Receptor Degradation Activity Said test involves measuring the in vitro degradation activity of the compounds of the invention. […] MCF7 cells (ATCC) were seeded in 384 wells microplate (collagen coated) at a concentration of 10000 cells/30 μL, per well in red phenol free MEM alpha medium (invitrogen) containing 5% charcoal dextran striped FBS. […] Integrated intensities in the green fluorescence and red fluorescence were measured to determine the levels of ERα and DNA respectively.
ENDPOINT_NAME: % Degradation At 3 μM (%)

Nc1nc(-c2ccc3c(c2)CCCC(c2ccc(Cl)cc2Cl)=C3c2ccc(O[C@H]3CCN(CCCF)C3)cc2)cs1 [Example 61] = 76
O=C(O)c1cccc(-c2ccc3c(c2)CCCC(c2ccc(Cl)cc2Cl)=C3c2ccc(O[C@H]3CCN(CCCF)C3)cc2)c1 [Example 55] = 84
FCCCN1CC[C@H](Oc2ccc(C3=C(c4ccc(Cl)cc4Cl)CCCc4cc(-c5noc(=S)[nH]5)ccc43)cc2)C1 [Example 34] = 66
CS(=O)(=O)Nc1ccc2c(c1)CCCC(c1ccc(Cl)cc1Cl)=C2c1ccc(O[C@H]2CCN(CCCF)C2)cc1 [Example 30] = 70
FCCCN1CC[C@H](Oc2ccc(C3=C(c4ccc(Cl)cc4Cl)CCCc4cc(-c5cn[nH]c5)ccc43)cc2)C1 [Example 21] = 78
FCCCN1CC[C@H](Oc2ccc(C3=C(c4ccc(Cl)cc4Cl)CCCc4cc(-c5cc[nH]n5)ccc43)cc2)C1 [Example 51] = 81
NNC(=O)c1ccc2c(c1)CCCC(c1ccc(Cl)cc1Cl)=C2c1ccc(O[C@H]2CCN(CCCF)C2)cc1 [Example 6] = 88

###

Target: ERα (Homo sapiens, UniProt P03372)
Construct: host or cells: MCF7 cells
Sequence (P03372 1-595): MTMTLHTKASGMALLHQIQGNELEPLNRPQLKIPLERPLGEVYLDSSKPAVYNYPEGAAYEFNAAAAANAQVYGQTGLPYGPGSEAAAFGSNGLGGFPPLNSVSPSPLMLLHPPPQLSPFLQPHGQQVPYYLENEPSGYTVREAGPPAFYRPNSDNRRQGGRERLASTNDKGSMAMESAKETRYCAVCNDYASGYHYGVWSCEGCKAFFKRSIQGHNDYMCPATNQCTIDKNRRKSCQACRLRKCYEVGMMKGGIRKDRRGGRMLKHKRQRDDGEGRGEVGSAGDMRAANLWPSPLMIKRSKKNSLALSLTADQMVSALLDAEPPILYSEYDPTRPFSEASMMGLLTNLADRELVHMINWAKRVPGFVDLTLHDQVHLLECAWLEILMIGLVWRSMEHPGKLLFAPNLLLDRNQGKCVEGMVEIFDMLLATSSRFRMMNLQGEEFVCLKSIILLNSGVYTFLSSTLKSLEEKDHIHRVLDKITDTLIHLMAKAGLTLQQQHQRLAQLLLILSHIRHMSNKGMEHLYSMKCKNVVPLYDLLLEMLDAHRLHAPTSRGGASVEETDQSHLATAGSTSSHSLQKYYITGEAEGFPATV
Assay: Estrogen receptor degradation activity: breast cancer cell ERα in cell western assay (MCF7 cells)
Type: cell-based
Settings: 4 hours, final concentrations ranging from 3-0.000018 μM, relative to fulvestrant 0.1 μM positive control
ENDPOINT_NAME: % Degradation At 3 μM (%)

CC(=O)Nc1ccc2c(c1)CCCC(c1ccc(Cl)cc1Cl)=C2c1ccc(O[C@H]2CCN(CCCF)C2)cc1 [Example 48] = 70
OC(c1ccc2c(c1)CCCC(c1ccc(Cl)cc1Cl)=C2c1ccc(O[C@H]2CCN(CCCF)C2)cc1)C(F)(F)F (some centres unmarked) [Example 10] = 92
O=S(=O)(Nc1ccc2c(c1)CCCC(c1ccc(Cl)cc1Cl)=C2c1ccc(O[C@H]2CCN(CCCF)C2)cc1)C(F)(F)F [Example 35] = 52
O=C1OCCN1c1ccc(C2=C(c3ccc(O[C@H]4CCN(CCCF)C4)cc3)c3ccc(N4CCOC4=O)cc3CCC2)c(Cl)c1 [Example 41] = 74
FCCCN1CC[C@H](Oc2ccc(C3=C(c4ccc(OC(F)(F)F)cc4)CCCc4cc(-c5cn[nH]c5)ccc43)cc2)C1 [Example 23] = 74
O=C(Nc1ccc2c(c1)CCCC(c1ccc(Cl)cc1Cl)=C2c1ccc(O[C@H]2CCN(CCCF)C2)cc1)C1CC1 [Example 60] = 74

1: COC(=O)Nc1ccc2c(c1)CCCC(c1ccc(Cl)cc1Cl)=C2c1ccc(O[C@H]2CCN(CCCF)C2)cc1 [Example 25]
2: FCCCN1CC[C@H](Oc2ccc(C3=C(c4ccc(Cl)cc4Cl)CCCc4cc(-c5n[nH]c(=S)o5)ccc43)cc2)C1 [Example 45]
INPUT: So which one has the bigger % Degradation At 3 μM here, 1 or 2 ? Respond using the label that marks the chosen record.
OUTPUT: 2
